Reference for the values: ChEMBL document CHEMBL6103553

- EXPERIMENT SUMMARY: Inhibition of his-tagged CTLA-4/CD80 (unknown origin) protein-protein interaction by TR-FRET assay
- Parameters: species or system Homo sapiens
pIC50: −log10 of the molar value.
READOUT TYPE: pIC50

O=[N+]([O-])c1cccc(/C=N/OCc2coc(-c3cccc(F)c3)n2)c1	5.29

P. Clc1ccc(C2=NN(c3ccccc3)C(c3ccco3)C2)cc1 (stereo not drawn)
Q. Clc1ccc(C2CN(c3ccccc3)N=C2c2ccco2)cc1 (stereo not drawn)
// pick min by pIC50: P , Q Kindly give the label for the entry you pick.
Q
(Q: 5.39, P: 6.00)

----------
- TARGET OR SYSTEM: V-type immunoglobulin domain-containing suppressor of T-cell activation (Homo sapiens, UniProt Q9H7M9)
- Sequence (Q9H7M9 whole entry): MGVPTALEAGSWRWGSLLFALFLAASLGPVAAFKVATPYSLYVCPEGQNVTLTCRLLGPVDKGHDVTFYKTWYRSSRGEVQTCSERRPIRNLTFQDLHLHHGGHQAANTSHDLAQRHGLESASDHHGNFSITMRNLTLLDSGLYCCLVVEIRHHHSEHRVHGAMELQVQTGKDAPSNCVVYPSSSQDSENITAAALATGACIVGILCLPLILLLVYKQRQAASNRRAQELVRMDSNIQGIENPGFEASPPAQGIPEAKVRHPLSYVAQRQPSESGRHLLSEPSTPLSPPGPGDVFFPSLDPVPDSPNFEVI
- EXPERIMENT SUMMARY: Inhibition of N-terminal His-tagged human recombinant VISTA (1 to 161 residues) transfected in human Expi293 cells incubated for 60 mins by ELISA analysis
READOUT TYPE: IC50 (µM)

Cc1cccc2nc(-c3cccc(CNCCO)c3)[nH]c12	256

1. CN(C)c1n/c(=N/Cc2ccco2)ss1
2. Cc1c(-c2ccccc2)ccc2nc(-c3ccc(CNCCO)cc3)[nH]c12
Field: entry with larger IC50 (options 1 / 2 ). Kindly give the label for the entry you pick.
1
(1: 4.5 µM, 2: 1.1 µM)
